Source listed as PubChem BioAssay (NCI).

System: IGROV1 ovarian
Method: NCI-60 one-dose screen, 48 h (100 = growth as untreated, 0 = no growth, -100 = all killed)
Test parameters: 10 µM unless noted
The panel holds about 83,000 compounds, 20% with a hit somewhere; the sample as a whole holds those more often. Activity calls are given as the source filed them. Rule for the calls: active = growth percent below 10; inactive = the rest.
Catalogue of molecules with associated growth

{"Molecule": "C=CCn1c(SCC(=O)Nc2ccc(C(=O)/C=C/c3cc(OC)c(OC)c(OC)c3)cc2)nnc1-c1cc(-c2ccc(S(N)(=O)=O)cc2)nc2ccccc12", "growth": "80.4% (inactive)"}
{"Molecule": "CCOC(=O)c1c(C)n2c(=O)cc(C)c3c(OC(C)=O)c(OC(C)=O)cc1c32", "growth": "76.9% (inactive)"}
{"Molecule": "Cc1c(Cl)cccc1NC(=O)c1sc2nc3c(cc2c1N)CCCC3", "growth": "57.2% (inactive)"}
{"Molecule": "Cc1cc(C)n(C(=O)CSc2nc3sc4c(c3c(=O)n2-c2ccccc2)CCCCC4)n1", "growth": "107% (inactive)"}
{"Molecule": "COc1ccc(C(=O)/C=C/c2ccc(C)cc2)cc1S(N)(=O)=O", "growth": "28% (inactive)"}
{"Molecule": "COc1cc(/C=N/NC(=O)c2ccc3nc(-c4ccc(Cl)cc4)[nH]c3c2)cc(OC)c1OC", "growth": "68.4% (inactive)"}
{"Molecule": "CCN(CC)CCCNc1cc(OC)cc2cccnc12", "growth": "106% (inactive)"}
{"Molecule": "C#Cc1c(I)n(C2OC(CO[Si](C)(C)C(C)(C)C)C3OC(C)(C)OC32)c(=O)[nH]c1=O (stereo not drawn)", "growth": "36.6% (inactive)"}

Ask: What reported growth corresponds to COc1ccc(NC(=O)c2sc3nc(C)c(C(=O)c4ccccc4)cc3c2N)cc1 on IGROV1 ovarian?
Reply: 101% (inactive)

Ask: Same for CCOC(=O)c1ccc2c(c1)c1c(C)c3cnccc3c(C)c1n2C
Reply: -62.7% (active)

Ask: Same for C=C(C)[C@@H]1CC[C@]2(C#N)CC[C@]3(C)[C@H](CC[C@@H]4[C@@]5(C)CCCNC(C)(C)[C@@H]5CC[C@]43C)[C@@H]12
Reply: 46.4% (inactive)

Ask: Same for C#CCOC(=O)C(N)CSSCC(N)C(=O)O (stereo not drawn)
Reply: 99.5% (inactive)

Ask: Same for O=C1/C(=C/c2cccc(Br)c2)COc2ccc(O)c(O)c21
Reply: -44.1% (active)

###

Test system: NCI-H522 lung
Method: NCI-60 one-dose screen, 48 h
Test parameters: 10 µM unless noted
The panel holds about 83,000 compounds, 20% with a hit somewhere; the sample as a whole holds those more often. Activity calls are given as the source filed them. How the source made its calls: active means growth percent below 10; inactive means the rest.
Just give me one of these, please: active, inactive

{"Compound": "CN1C(=O)N(C)C2C1NN=c1s/c(=C\\c3ccccc3F)c(=O)n12 (stereo not given)", "Classification": "active"}
{"Compound": "CCN1CCN(c2nc(NNC(=O)c3ccc(OC)cc3)nc(N3CCN(C(c4ccccc4)c4ccccc4)CC3)n2)CC1", "Classification": "inactive"}
{"Compound": "Oc1cccc2c1NCCC2", "Classification": "active"}
{"Compound": "CCN1C(=O)N(CC)C2C1NN=c1s/c(=C\\c3ccc([N+](=O)[O-])cc3)c(=O)n12 (stereo not given)", "Classification": "active"}
{"Compound": "CCOC(=O)c1c(C)nc2c(c1N)C(=O)C(=O)N2CCc1ccc(OC)c(OC)c1", "Classification": "inactive"}

Ask: Which outcome was entered for the compound COc1ccc(/C=N/NC(=O)Cn2nnc3ccccc32)cc1 in this test?
Reply: inactive

Ask: Same for CC(C)(C)CC(C)(C)Nc1c(-c2c(O)c3ccccc3oc2=O)nc2sccn12
Reply: inactive
